B1: library; a variant is named by its letters at N, in order (parent)
chain: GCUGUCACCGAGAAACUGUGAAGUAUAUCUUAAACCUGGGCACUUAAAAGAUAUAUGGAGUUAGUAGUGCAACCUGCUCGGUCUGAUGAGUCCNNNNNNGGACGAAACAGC

Variants of: B1
ASSAY: FACS-Seq fitted mean relative fluorescence mCherry/BFP with ligand (log10 relative fluorescence); HEK293T; ligand: cyclic di-GMP (c-di-GMP-II aptamer); ligand concentration (+) FACS-Seq: 1 mM; higher = higher reporter protein expression
CONDITIONS_USED: ligand present: yes
MEASURED_PARAMETER: FACS-Seq fitted mean (log10)

> print(dat)
    variant.id            measured.parameter  endpoint.result
 1      GCGUGU  FACS-Seq fitted mean (log10)            0.114
 2      GUGGAU  FACS-Seq fitted mean (log10)           -0.192
 3      CGGAAA  FACS-Seq fitted mean (log10)            -0.44
 4      AAUUGG  FACS-Seq fitted mean (log10)            0.141
 5      AAAGAU  FACS-Seq fitted mean (log10)            0.367
 6      GUUAUG  FACS-Seq fitted mean (log10)          -0.0804
 7      AGCUGC  FACS-Seq fitted mean (log10)            0.255
 8      UAUCAC  FACS-Seq fitted mean (log10)            0.375
 9      CAGGAA  FACS-Seq fitted mean (log10)           -0.392
10      AAGGGG  FACS-Seq fitted mean (log10)           -0.103
11      UCCAAA  FACS-Seq fitted mean (log10)            0.111
12      GAUAAU  FACS-Seq fitted mean (log10)           0.0798
13      ACAUGG  FACS-Seq fitted mean (log10)           -0.227
14      UAUUAC  FACS-Seq fitted mean (log10)           -0.849
15      GUUUGA  FACS-Seq fitted mean (log10)           -0.212
16      CCCAUU  FACS-Seq fitted mean (log10)            0.204
17      CGCGUA  FACS-Seq fitted mean (log10)           -0.224
18      GCACAA  FACS-Seq fitted mean (log10)           0.0543
19      AAAUGU  FACS-Seq fitted mean (log10)            0.136
20      UCACUU  FACS-Seq fitted mean (log10)          -0.0521
21      AUUGAA  FACS-Seq fitted mean (log10)            0.152
22      ACGGAU  FACS-Seq fitted mean (log10)           -0.374
23      ACAGAA  FACS-Seq fitted mean (log10)           -0.287
24      CAUCAA  FACS-Seq fitted mean (log10)          -0.0581
25      CUCCUA  FACS-Seq fitted mean (log10)           0.0398
26      CAAAUA  FACS-Seq fitted mean (log10)           -0.211
27      UAUGAA  FACS-Seq fitted mean (log10)          -0.0026
28      UGAUGA  FACS-Seq fitted mean (log10)          0.00931
29      GUUAUA  FACS-Seq fitted mean (log10)            0.169
30      UUGCGU  FACS-Seq fitted mean (log10)         -0.00149
31      UCAGAU  FACS-Seq fitted mean (log10)          -0.0266
32      AGGAGA  FACS-Seq fitted mean (log10)           -0.304
33      AUUGCC  FACS-Seq fitted mean (log10)            0.207
34      AGUAGA  FACS-Seq fitted mean (log10)            -0.22
35      GCAUCU  FACS-Seq fitted mean (log10)           -0.903
36      UGACUC  FACS-Seq fitted mean (log10)            0.268
37      GAUCAA  FACS-Seq fitted mean (log10)           0.0757
38      CAGCUU  FACS-Seq fitted mean (log10)           -0.151
39      CGCUAU  FACS-Seq fitted mean (log10)           -0.866
40      GCAUAC  FACS-Seq fitted mean (log10)             0.23
41      AAAUAU  FACS-Seq fitted mean (log10)           -0.152
42      GACGGA  FACS-Seq fitted mean (log10)           0.0761
43      ACUGCU  FACS-Seq fitted mean (log10)            0.249
44      GUUGAG  FACS-Seq fitted mean (log10)           0.0985
45      GUGAAU  FACS-Seq fitted mean (log10)           -0.318
46      GCACUA  FACS-Seq fitted mean (log10)            0.225
